Entry source: patent US5545639A

- Tested on: A549/ATCC
- test method notes: Dose response of growth, tumor cell line
- Assay type: cell-based
- particulars: Homo sapiens, non-small cell lung cancer, read-out: 50% Growth (Relative to Control)
result type: pIC50
pIC50 is defined as minus the log10 of a concentration measured in mol/L.

Form field: reported pIC50 of ClCc1ccc2ccc3ccc(CCl)nc3c2n1
5.29

---

- System: UO-31
- test method notes: Dose response of growth, tumor cell line
- Format: cell-based
- particulars: Homo sapiens; UO-31, renal cancer; read-out: 50% Growth (Relative to Control)
result type: pIC50
// pIC50 is dimensionless: -log10 of concentration (M)

Data request, read-out pIC50, for ClCc1ccc2ccc3ccc(CCl)nc3c2n1
5.77

---

- Tested on: OVCAR-5
- test method notes: Dose response of growth, tumor cell line
- Type: cell-based
- particulars: Homo sapiens; OVCAR-5, ovarian cancer; read-out: 50% Growth (Relative to Control)
result type: pIC50
When answering, recall that pIC50 equals minus log10 of the concentration in mol/L, and write that number alone.

Using the record for ClCc1ccc2ccc3ccc(CCl)nc3c2n1 , report its pIC50.
5.73

---

- Test system: P388/ADR
- test method notes: Dose response of growth, tumor cell line
- Format: cell-based, murine
- particulars: Mus musculus, miscellaneous, read-out: 50% Growth (Relative to Control)
result type: pIC50
pIC50 field: float, defined as -log10 of concentration (mol/L).

Find the recorded pIC50 belonging to ClCc1ccc2ccc3ccc(CCl)nc3c2n1 and report it.
6.45

---

- Test system: HOP-62
- test method notes: Dose response of growth, tumor cell line
- Type: cell-based
- particulars: Homo sapiens; HOP-62, non-small cell lung cancer; read-out: 50% Growth (Relative to Control)
result type: pIC50
Value format note: pIC50 is -log10 of concentration (mol/L); just state the number.

API: value(readout=pIC50, system=HOP-62) for record ClCc1ccc2ccc3ccc(CCl)nc3c2n1
5.64

---

- Test system: OVCAR-3
- test method notes: Dose response of growth, tumor cell line
- Assay type: cell-based
- particulars: Homo sapiens; OVCAR-3, ovarian cancer; read-out: 50% Growth (Relative to Control)
- Method: Indeed, 70% of the cell lines were shown not only to experience precluded growth, but cell death, when exposed to less then 100 μM of the active ingredient.
result type: pIC50
Scale: negative log10 of molar concentration, which is what pIC50 denotes.

I would be grateful if you could share the reported pIC50 for ClCc1ccc2ccc3ccc(CCl)nc3c2n1 .
5.76

---

- System: MALME-3M
- test method notes: Dose response of growth, tumor cell line
- Assay type: cell-based
- particulars: Homo sapiens, melanoma, read-out: 50% Growth (Relative to Control)
result type: IC50 (nM)
Answer in nM, number only, no unit symbol.

// returns reported IC50 for input ClCc1ccc2ccc3ccc(CCl)nc3c2n1
1890

---

- System: IGROVI
- test method notes: Dose response of growth, tumor cell line
- Type: cell-based
- particulars: Homo sapiens, ovarian cancer, read-out: 50% Growth (Relative to Control)
result type: pIC50
Friendly reminder that pIC50 comes from taking -log10 of the concentration in mol/L.

Recorded pIC50 for ClCc1ccc2ccc3ccc(CCl)nc3c2n1 , please?
5.82

---

- System: HL-60 (TB)
- test method notes: Dose response of growth, tumor cell line
- Type: cell-based
- particulars: Homo sapiens, leukemia, read-out: 50% Growth (Relative to Control)
result type: IC50 (µM)
The answer is to be given in µM; state only the numeric part.

Please give the measured IC50 for this molecule: ClCc1ccc2ccc3ccc(CCl)nc3c2n1
1.8

---

- System: NCI-H522
- test method notes: Dose response of growth, tumor cell line
- Format: cell-based
- particulars: Homo sapiens; NCI-H522, non-small cell lung cancer; read-out: 50% Growth (Relative to Control)
result type: IC50 (µM)
Answer with a number only, understood to be in µM.

Any idea what its IC50 is? The compound is ClCc1ccc2ccc3ccc(CCl)nc3c2n1
1.76

---

- Test system: P388
- test method notes: Dose response of growth, tumor cell line
- Format: cell-based, murine
- particulars: Mus musculus; P388, miscellaneous; read-out: 50% Growth (Relative to Control)
result type: IC50 (nM)
All answers are understood in nM, so give the number only.

Entry ClCc1ccc2ccc3ccc(CCl)nc3c2n1 : reported IC50 = ?
735

---

- Test system: OVCAR-8
- test method notes: Dose response of growth, tumor cell line
- Format: cell-based
- particulars: Homo sapiens; OVCAR-8, ovarian cancer; read-out: 50% Growth (Relative to Control)
- Description: Indeed, 70% of the cell lines were shown not only to experience precluded growth, but cell death, when exposed to less then 100 μM of the active ingredient.
result type: IC50 (µM)
Hi! Could you send only the number? It should be in µM, unit omitted.

Any idea what IC50 was measured for ClCc1ccc2ccc3ccc(CCl)nc3c2n1 ?
6.85

---

- System: HCT-15
- test method notes: Dose response of growth, tumor cell line
- Format: cell-based
- particulars: Homo sapiens; HCT-15, colon cancer; read-out: 50% Growth (Relative to Control)
result type: IC50 (µM)
Express your answer in µM, writing the number without its unit.

Sample ClCc1ccc2ccc3ccc(CCl)nc3c2n1 — what was its IC50?
1.95

---

- Tested on: NCI-H226
- test method notes: Dose response of growth, tumor cell line
- Type: cell-based
- particulars: Homo sapiens; NCI-H226, non-small cell lung cancer; read-out: 50% Growth (Relative to Control)
result type: IC50 (µM)
# number only, unit µM dropped from output

Requested read-out: IC50. Entry: ClCc1ccc2ccc3ccc(CCl)nc3c2n1
3.06

---

- Test system: MOLT-4
- test method notes: Dose response of growth, tumor cell line
- Format: cell-based
- particulars: Homo sapiens; MOLT-4, leukemia; read-out: 50% Growth (Relative to Control)
result type: pIC50
Lab note — pIC50 values are minus log10 of concentrations in M.

So what pIC50 did ClCc1ccc2ccc3ccc(CCl)nc3c2n1 get with MOLT-4?
5.76
